- Measurement Target: rat collagen (acid soluble, type I, rat tail, Upstate 08-115) (rat) (UniProt P02454)
- Sequence (P02454 152-1207 limits assumed, chain 1 of 2): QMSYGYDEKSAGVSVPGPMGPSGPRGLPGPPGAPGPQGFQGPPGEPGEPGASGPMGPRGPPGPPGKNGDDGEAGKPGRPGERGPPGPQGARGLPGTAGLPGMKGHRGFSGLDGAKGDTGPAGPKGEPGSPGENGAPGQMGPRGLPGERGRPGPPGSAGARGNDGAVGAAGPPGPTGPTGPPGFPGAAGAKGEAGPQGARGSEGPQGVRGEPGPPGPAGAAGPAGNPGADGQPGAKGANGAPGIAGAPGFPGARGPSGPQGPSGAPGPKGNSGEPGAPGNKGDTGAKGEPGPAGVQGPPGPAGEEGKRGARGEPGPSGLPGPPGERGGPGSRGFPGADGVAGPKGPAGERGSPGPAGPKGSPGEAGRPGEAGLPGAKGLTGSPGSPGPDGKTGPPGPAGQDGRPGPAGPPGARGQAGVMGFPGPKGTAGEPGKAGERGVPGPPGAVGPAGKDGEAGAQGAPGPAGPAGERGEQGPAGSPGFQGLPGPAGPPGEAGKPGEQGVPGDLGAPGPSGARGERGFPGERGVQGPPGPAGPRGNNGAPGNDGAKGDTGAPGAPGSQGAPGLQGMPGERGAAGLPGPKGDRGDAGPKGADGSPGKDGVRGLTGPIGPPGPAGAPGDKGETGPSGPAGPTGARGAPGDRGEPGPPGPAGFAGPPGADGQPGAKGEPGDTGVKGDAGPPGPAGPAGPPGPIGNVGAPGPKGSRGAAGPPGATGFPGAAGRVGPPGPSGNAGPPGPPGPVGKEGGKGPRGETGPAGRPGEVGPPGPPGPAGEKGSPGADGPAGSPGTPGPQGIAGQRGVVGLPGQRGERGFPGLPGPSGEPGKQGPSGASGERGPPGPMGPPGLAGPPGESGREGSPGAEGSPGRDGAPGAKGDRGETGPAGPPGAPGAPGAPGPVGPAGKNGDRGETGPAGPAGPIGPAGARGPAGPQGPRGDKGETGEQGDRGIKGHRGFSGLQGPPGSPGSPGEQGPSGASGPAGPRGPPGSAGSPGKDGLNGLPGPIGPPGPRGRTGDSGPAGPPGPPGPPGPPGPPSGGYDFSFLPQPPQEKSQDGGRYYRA
- Sequence (P02466 86-1125 limits assumed, chain 2 of 2, further chain): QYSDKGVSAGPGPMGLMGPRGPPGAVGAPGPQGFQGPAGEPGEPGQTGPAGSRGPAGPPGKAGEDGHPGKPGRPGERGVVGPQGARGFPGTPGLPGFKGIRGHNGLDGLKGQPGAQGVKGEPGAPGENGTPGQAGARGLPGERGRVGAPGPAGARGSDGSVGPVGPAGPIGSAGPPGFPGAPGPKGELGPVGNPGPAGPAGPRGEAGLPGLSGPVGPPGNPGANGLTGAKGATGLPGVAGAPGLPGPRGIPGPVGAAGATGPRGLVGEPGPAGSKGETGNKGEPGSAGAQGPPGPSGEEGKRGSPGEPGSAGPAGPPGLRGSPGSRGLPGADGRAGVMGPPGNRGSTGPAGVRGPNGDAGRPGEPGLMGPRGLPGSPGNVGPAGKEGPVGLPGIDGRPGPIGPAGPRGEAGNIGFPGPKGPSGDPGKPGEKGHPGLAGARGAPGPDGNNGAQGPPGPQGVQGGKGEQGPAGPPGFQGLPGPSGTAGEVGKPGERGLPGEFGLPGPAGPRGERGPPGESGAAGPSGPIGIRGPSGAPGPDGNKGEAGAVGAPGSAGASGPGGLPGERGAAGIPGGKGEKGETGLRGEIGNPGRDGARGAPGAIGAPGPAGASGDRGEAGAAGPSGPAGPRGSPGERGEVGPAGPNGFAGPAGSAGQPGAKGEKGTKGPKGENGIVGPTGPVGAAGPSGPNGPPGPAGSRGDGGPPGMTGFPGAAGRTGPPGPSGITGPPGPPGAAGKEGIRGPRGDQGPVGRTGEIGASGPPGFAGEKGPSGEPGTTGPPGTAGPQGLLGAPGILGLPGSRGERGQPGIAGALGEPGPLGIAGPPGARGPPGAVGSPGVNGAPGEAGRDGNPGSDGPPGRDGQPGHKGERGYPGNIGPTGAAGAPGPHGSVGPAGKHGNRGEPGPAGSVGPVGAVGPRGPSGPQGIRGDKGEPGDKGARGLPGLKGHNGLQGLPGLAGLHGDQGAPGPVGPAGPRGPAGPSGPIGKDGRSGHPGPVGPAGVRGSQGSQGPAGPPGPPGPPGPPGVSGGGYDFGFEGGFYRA
- Assay: dried collagen assay
Bridge positions count the residues as written; N and C are the ends. Square brackets hold non-standard residues; d marks the D form. Primed or numbered codes have the meaning given here. Ends that are not written are not given here. Gd^T = not defined here; Gd^T″ = GdDTPA-thiourea
Below: a set of entries, each annotated with reported % bound.
Give the number; % is assumed, so skip it.

Past entries and their recorded results:
Binder	% bound / %
YHACYQAGCWAW (disulfide 4-9 (inferred)) [SEQ ID NO: 137]	7
{Gd^T″}-GQWTCSGDEYAWHCNY[dE] (disulfide 5-14 (inferred)) [Comp ID 832]	4

The record that follows has no % bound shown yet.
Which % bound reading was recorded for the binder {Gd^T}-DWTCS[dL]DEYTWHCNYE (disulfide 4-13 (inferred); not fully specified (C-terminus); reading uncertain) [Comp ID 847] ?
7

The measurements presented in this section are drawn from patent US20070293656A1.
